target.or.system: Human immunodeficiency virus type 1 protease (Human immunodeficiency virus 1)
procedure.details: Inhibitory activity against HIV protease at a concentration of 5 uM
Criterion: inhibition meeting or surpassing 70%. Met: Condition met. Not met: Condition not met.

[[record]]
compound = "Cc1ccccc1CNC(=O)[C@H]1N(C(=O)[C@@H](O)[C@H](Cc2ccccc2)NC(=O)CC(C)(C)C(=O)OCC2OC(n3cc(C)c(=O)[nH]c3=O)CC2N=[N+]=[N-])CSC1(C)C (stereo partly drawn)"
class_label = "Condition met"

[[record]]
compound = "Cc1ccccc1CNC(=O)[C@@H]1CSCN1C(=O)[C@@H](O)[C@H](Cc1ccccc1)NC(=O)CC(C)(C)C(=O)O"
class_label = "Condition met"

[[record]]
compound = "Cc1ccccc1CNC(=O)[C@H]1N(C(=O)[C@@H](O)[C@H](Cc2ccccc2)NC(=O)C(C)C(C)C(=O)OCC2OC(n3cc(C)c(=O)[nH]c3=O)CC2N=[N+]=[N-])CSC1(C)C (stereo partly drawn)"
class_label = "Condition met"

[[record]]
compound = "CC(C)(C)NC(=O)[C@@H]1CSCN1C(=O)[C@@H](O)[C@H](Cc1ccccc1)NC(=O)CCC(=O)O"
class_label = "Condition met"

[[record]]
compound = "Cc1ccccc1CNC(=O)[C@@H]1CSCN1C(=O)[C@@H](O)[C@H](Cc1ccccc1)NC(=O)C(C)C(C)C(=O)O (stereo partly drawn)"
class_label = "Condition met"

[[record]]
compound = "Cc1ccccc1CNC(=O)[C@@H]1CSCN1C(=O)[C@@H](O)[C@H](Cc1ccccc1)NC(=O)C(C)C(C)C(=O)OCC1OC(n2cc(C)c(=O)[nH]c2=O)CC1N=[N+]=[N-] (stereo partly drawn)"
class_label = "Condition not met"

[[record]]
compound = "Cc1ccccc1CNC(=O)[C@H]1N(C(=O)[C@@H](O)[C@H](Cc2ccccc2)NC(=O)CC(C)(C)C(=O)O)CSC1(C)C"
class_label = "Condition met"

[[record]]
compound = "Cc1cn(C2CC(N=[N+]=[N-])C(COC(=O)C(C)(C)CC(=O)N[C@@H](Cc3ccccc3)[C@H](O)C(=O)N3CSC(C)(C)[C@H]3C(=O)NC(C)(C)C)O2)c(=O)[nH]c1=O (stereo partly drawn)"
class_label = "Condition not met"

[[record]]
compound = "Cc1ccccc1CNC(=O)[C@H]1N(C(=O)[C@@H](O)[C@H](Cc2ccccc2)NC(=O)C(C)C(C)C(=O)O)CSC1(C)C (stereo partly drawn)"
class_label = "Condition met"

[[record]]
compound = "CSC[C@H](NC(=O)COc1cccc2cnccc12)C(=O)N[C@@H](Cc1ccccc1)[C@H](O)C(=O)N1CSC[C@H]1C(=O)NC(C)(C)C"
class_label = "Condition met"

[[record]]
compound = "Cc1cn(C2CC(N=[N+]=[N-])C(COC(=O)C(C)C(C)C(=O)N[C@@H](Cc3ccccc3)[C@H](O)C(=O)N3CSC[C@H]3C(=O)NC(C)(C)C)O2)c(=O)[nH]c1=O (stereo partly drawn)"
class_label = "Condition not met"

[[record]]
compound = "CC(C)(C)NC(=O)[C@@H]1CSCN1C(=O)[C@@H](O)[C@H](Cc1ccccc1)NC(=O)CC(C)(C)C(=O)O"
class_label = "Condition met"

